experiment: Terminal half life in C57BL/6N mouse at 0.171 mM, iv measured upto 24 hrs; type: ADME, organism-based; settings: in vivo, read-out: beta t1/2 (converted)
Property measured: half-life at 171 µM (h)

query: Record request: half-life at 171 µM value, item CCCCCCCCCCCCCCCC(=O)NCCCCC(NC(=O)COCCOCCNC(=O)CCCCC[N+]1=C(/C=C/C2=CC(=C/C=C3/N(C)c4ccc(S(=O)(=O)O)cc4C3(C)C)/CCC2)C(C)(C)c2cc(S(=O)(=O)[O-])ccc21)C(=O)NCCOCCOCC(=O)NCCOCCOCC(=O)NC(CSSc1ccccn1)C(N)=O (stereo not drawn)
result: 7.62

(a) CN1/C(=C/C=C2C=C(/C=C/C3=[N+](CCCCCC(=O)NCCOCCOCC(=O)NCCOCCOCC(=O)NCCOCCOCC(=O)NC(CSSc4ccccn4)C(N)=O)c4ccc(S(=O)(=O)[O-])cc4C3(C)C)CCC/2)C(C)(C)c2cc(S(=O)(=O)O)ccc21 (stereo not drawn)
(b) CCCCCCCCCCCCCCCC(=O)NCCCCC(NC(=O)COCCOCCNC(=O)CCCCC[N+]1=C(/C=C/C2=CC(=C/C=C3/N(C)c4ccc(S(=O)(=O)O)cc4C3(C)C)/CCC2)C(C)(C)c2cc(S(=O)(=O)[O-])ccc21)C(=O)NCCOCCOCC(=O)NCCOCCOCC(N)=O (stereo not drawn)
query: Endpoint returns whichever of a and b has the numerically higher half-life at 171 µM. Let me know the label of the one you choose.
result: a

====

test: Clearance in C57BL/6N mouse at 0.171 mM, iv measured upto 24 hrs; type: ADME, organism-based; settings: in vivo
Property measured: clearance at 171 µM (mL/min/kg)

(a) CN1/C(=C/C=C2C=C(/C=C/C3=[N+](CCCCCC(=O)NCCOCCOCC(=O)NCCOCCOCC(=O)NCCOCCOCC(=O)NC(CSSc4ccccn4)C(N)=O)c4ccc(S(=O)(=O)[O-])cc4C3(C)C)CCC/2)C(C)(C)c2cc(S(=O)(=O)O)ccc21 (stereo not drawn)
(b) CCCCCCCCCCCCCCCC(=O)NCCCCC(NC(=O)COCCOCCNC(=O)CCCCC[N+]1=C(/C=C/C2=CC(=C/C=C3/N(C)c4ccc(S(=O)(=O)O)cc4C3(C)C)/CCC2)C(C)(C)c2cc(S(=O)(=O)[O-])ccc21)C(=O)NCCOCCOCC(=O)NCCOCCOCC(N)=O (stereo not drawn)
query: // compare: a vs b , metric clearance at 171 µM, want the smaller Let me know the label of the one you choose.
result: a

====

test: Volume of distribution in C57BL/6N mouse at 0.171 mM, iv measured upto 24 hrs; format: ADME, organism-based; conditions: in vivo
Property measured: Vd at 171 µM (L/kg)

query: Record request: Vd at 171 µM value, item CCCCCCCCCCCCCCCC(=O)NCCCCC(NC(=O)COCCOCCNC(=O)CCCCC[N+]1=C(/C=C/C2=CC(=C/C=C3/N(C)c4ccc(S(=O)(=O)O)cc4C3(C)C)/CCC2)C(C)(C)c2cc(S(=O)(=O)[O-])ccc21)C(=O)NCCOCCOCC(=O)NCCOCCOCC(=O)NC(CSSc1ccccn1)C(N)=O (stereo not drawn)
result: 0.0284

query: Lookup CN1/C(=C/C=C2C=C(/C=C/C3=[N+](CCCCCC(=O)NCCOCCOCC(=O)NCCOCCOCC(=O)NCCOCCOCC(=O)NC(CSSc4ccccn4)C(N)=O)c4ccc(S(=O)(=O)[O-])cc4C3(C)C)CCC/2)C(C)(C)c2cc(S(=O)(=O)O)ccc21 (stereo not drawn)
result: 0.0413

query: Lookup CCCCCCCCCCCCCCCC(=O)NCCCCC(NC(=O)COCCOCCNC(=O)CCCCC[N+]1=C(/C=C/C2=CC(=C/C=C3/N(C)c4ccc(S(=O)(=O)O)cc4C3(C)C)/CCC2)C(C)(C)c2cc(S(=O)(=O)[O-])ccc21)C(=O)NCCOCCOCC(=O)NCCOCCOCC(N)=O (stereo not drawn)
result: 0.0427

====

test: AUCt in C57BL/6N mouse at 0.171 mM, iv measured upto 24 hrs; assay type: ADME, organism-based; conditions: in vivo
Property measured: AUC(0-t) at 24 h, 171 µM (ng·h/mL)

query: Record request: AUC(0-t) at 24 h, 171 µM value, item CCCCCCCCCCCCCCCC(=O)NCCCCC(NC(=O)COCCOCCNC(=O)CCCCC[N+]1=C(/C=C/C2=CC(=C/C=C3/N(C)c4ccc(S(=O)(=O)O)cc4C3(C)C)/CCC2)C(C)(C)c2cc(S(=O)(=O)[O-])ccc21)C(=O)NCCOCCOCC(=O)NCCOCCOCC(=O)NC(CSSc1ccccn1)C(N)=O (stereo not drawn)
result: 146000

(I) CN1/C(=C/C=C2C=C(/C=C/C3=[N+](CCCCCC(=O)NCCOCCOCC(=O)NCCOCCOCC(=O)NCCOCCOCC(=O)NC(CSSc4ccccn4)C(N)=O)c4ccc(S(=O)(=O)[O-])cc4C3(C)C)CCC/2)C(C)(C)c2cc(S(=O)(=O)O)ccc21 (stereo not drawn)
(II) CCCCCCCCCCCCCCCC(=O)NCCCCC(NC(=O)COCCOCCNC(=O)CCCCC[N+]1=C(/C=C/C2=CC(=C/C=C3/N(C)c4ccc(S(=O)(=O)O)cc4C3(C)C)/CCC2)C(C)(C)c2cc(S(=O)(=O)[O-])ccc21)C(=O)NCCOCCOCC(=O)NCCOCCOCC(N)=O (stereo not drawn)
query: Endpoint returns whichever of I and II has the numerically higher AUC(0-t) at 24 h, 171 µM. Let me know the label of the one you choose.
result: I
(I: 50500 ng·h/mL, II: 30800 ng·h/mL)

Where do the numbers come from? From ChEMBL document CHEMBL6096712.
